B1: library; a variant is named by its letters at N, in order (parent)
chain: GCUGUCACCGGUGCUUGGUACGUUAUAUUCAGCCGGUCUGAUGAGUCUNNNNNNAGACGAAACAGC

variants of: B1; experiment: normalized RNA/DNA level with ligand (relative to sTRSVctl = 100) (log10 (% of sTRSVctl)); HEK293T overexpressing SLC46A1; ligand concentration (+) RNA-Seq: 6 mM; higher = less ribozyme self-cleavage, higher mRNA level; conditions: with (6R,S)-folinic acid; ligand present: yes
# key: entry, value: normalized RNA/DNA level with ligand (log10)
# answer = number (no unit)

Recorded results for 7 variants are shown here.
GCUGUCACCGGUGCUUGGUACGUUAUAUUCAGCCGGUCUGAUGAGUCUCGGAAGAGACGAAACAGC [CGGAAG]: 1.98
GCUGUCACCGGUGCUUGGUACGUUAUAUUCAGCCGGUCUGAUGAGUCUUAUCAAAGACGAAACAGC [UAUCAA]: 2
GCUGUCACCGGUGCUUGGUACGUUAUAUUCAGCCGGUCUGAUGAGUCUAUCCGAAGACGAAACAGC [AUCCGA]: 2.02
GCUGUCACCGGUGCUUGGUACGUUAUAUUCAGCCGGUCUGAUGAGUCUAAGCAUAGACGAAACAGC [AAGCAU]: 2.01
GCUGUCACCGGUGCUUGGUACGUUAUAUUCAGCCGGUCUGAUGAGUCUUGAGCAAGACGAAACAGC [UGAGCA]: 2.02
GCUGUCACCGGUGCUUGGUACGUUAUAUUCAGCCGGUCUGAUGAGUCUGCUUCGAGACGAAACAGC [GCUUCG]: 2.02
GCUGUCACCGGUGCUUGGUACGUUAUAUUCAGCCGGUCUGAUGAGUCUAAGCCUAGACGAAACAGC [AAGCCU]: 2.03

Now for another entry.
GCUGUCACCGGUGCUUGGUACGUUAUAUUCAGCCGGUCUGAUGAGUCUACGCGAAGACGAAACAGC [ACGCGA] has a reported normalized RNA/DNA level with ligand (log10) of 2.04

This collection of values is drawn from the supplement of paper PMC6757056.
